Experiment: Pharmacokinetic study in rats
Assay type: in vivo, SD rats
Settings: male, SD, plasma; rat, IV, 1 mg/kg; read-out: MRT0-∞
Entries and their MRT inf values follow.
API: value field is a number in h; no unit string.

Worked set:
CC1(COc2cnc(NCc3c(F)ccc4c3CCO4)n3cnnc23)COC1 [HJM-105] ... 1.56
O=C1CCCN1c1cnc(NCc2c(F)ccc3c2CCO3)n2cnnc12 [HJM-067] ... 0.8
Fc1ccc2c(c1CNc1ncc(OCC3COC3)c3nncn13)CCO2 [HJM-104] ... 2.37
CCN(C(=O)C1CC1)c1cnc(NCc2c(F)ccc3c2CCO3)n2cnnc12 [HJM-079] ... 1.1

Exercise: Return reported MRT inf; argument: Fc1ccc2c(c1CNc1ncc(OCC3CCOC3)c3nncn13)CCO2 (centres unmarked) [HJM-102]
Solution: 1.4

Exercise: Return reported MRT inf; argument: CN(C(=O)C1CC1)c1cnc(NCc2c(F)ccc3c2CCO3)n2cnnc12 [HJM-045]
Solution: 1.06

Exercise: Return reported MRT inf; argument: Fc1ccc2c(c1CNc1ncc(OC3CCOCC3)c3nncn13)CCO2 [HJM-016]
Solution: 2.94

Exercise: Return reported MRT inf; argument: O=C(Nc1cnc(NCc2c(F)ccc3c2CCO3)n2cnnc12)C1CC1 [HJM-030]
Solution: 1.02
